biological target: UniProt:P04839; test: Human NOX2 isolated membranes, MCLA assay; type: biochemical; design: NOX2 was expressed as native protein in X-CGD PLB-985 cells transduced with the RD114 pseudotyped MFGS-NOX2 vector; expressed in transfected cells; host or cells: X-CGD PLB-985 cells transduced with MFGS-NOX2; isolated membranes; Cytosolic proteins made in E. coli; conditions: membrane-embedded; 240 μM NADPH; read-out: IC50 on human NOXs, NOX2 (MCLA)
pIC50: −log10 of the molar value.
# pIC50 per record follows
QUANTITY KIND: pIC50

[[record]]
molecule = "C#CCNC(=O)c1ccc(Cn2nnc3c(Sc4nc5ccccc5o4)ncnc32)cc1 [Compound 8b]"
quantity_kind = "pIC50"
prefix_operator = "="
value = 4.76

[[record]]
molecule = "CCCNC(=O)c1ccc(Cn2nnc3c(Sc4nc5ccccc5o4)ncnc32)cc1 [Compound 8a]"
quantity_kind = "pIC50"
prefix_operator = "="
value = 5.55

[[record]]
molecule = "FC1(F)CC2(CCN(Cc3ccc(Cn4nnc5c(Sc6nc7ccccc7o6)ncnc54)cc3)CC2)C1 [Compound 9f]"
quantity_kind = "pIC50"
prefix_operator = "="
value = 4.86

[[record]]
molecule = "C#CCN(C)Cc1ccc(Cn2nnc3c(Sc4nc5ccccc5o4)ncnc32)cc1 [Compound 9a]"
quantity_kind = "pIC50"
prefix_operator = "="
value = 6.25

[[record]]
molecule = "CCCN(C)Cc1ccc(Cn2nnc3c(Sc4nc5ccccc5o4)ncnc32)cc1 [Compound 9b]"
quantity_kind = "pIC50"
prefix_operator = "<"
value = 4.00

[[record]]
molecule = "c1ccc2oc(Sc3ncnc4c3nnn4Cc3ccc(CN4CCOCC4)cc3)nc2c1 [Compound 9e]"
quantity_kind = "pIC50"
prefix_operator = "="
value = 5.72

[[record]]
molecule = "CN(Cc1ccccc1)Cc1ccc(Cn2nnc3c(Sc4nc5ccccc5o4)ncnc32)cc1 [Compound 9c]"
quantity_kind = "pIC50"
prefix_operator = "="
value = 4.89

[[record]]
molecule = "c1ccc2oc(Sc3ncnc4c3nnn4Cc3ccc(CN4CCCCC4)cc3)nc2c1 [Compound 9d]"
quantity_kind = "pIC50"
prefix_operator = "="
value = 5.09


----------
# pIC50 per record follows
molecular target: UniProt:P04839; assay: In cellulo NOX2 activity in NOX2-overexpressing PLB-985 cells, cytochrome c reduction; assay type: cell-based; parameters: NOX2 was expressed as native protein in X-CGD PLB-985 cells transduced with the RD114 pseudotyped MFGS-NOX2 vector; expressed in transfected cells; host or cells: X-CGD PLB-985 cells transduced with MFGS-NOX2 vector; details: intact PMA-stimulated cells, cytochrome c 200 μM
pIC50: −log10 of the molar value.
QUANTITY KIND: pIC50

[[record]]
compound = "C#CCNC(=O)c1ccc(Cn2nnc3c(Sc4nc5ccccc5o4)ncnc32)cc1"
target_or_test_system = "UniProt:P04839"
quantity_kind = "pIC50"
value = 4.75

[[record]]
compound = "CCCNC(=O)c1ccc(Cn2nnc3c(Sc4nc5ccccc5o4)ncnc32)cc1"
target_or_test_system = "UniProt:P04839"
quantity_kind = "pIC50"
value = 5.55

[[record]]
compound = "C#CCN(C)Cc1ccc(Cn2nnc3c(Sc4nc5ccccc5o4)ncnc32)cc1"
target_or_test_system = "UniProt:P04839"
quantity_kind = "pIC50"
value = 6.87


----------
target: human NOX4 (Homo sapiens); construct: isolated membranes; assay: Human NOX4 isolated membranes, Amplex Red/horseradish peroxidase coupled assay; settings: membrane-embedded; 40 μM NADPH; read-out: IC50 on human NOXs, NOX4 (AMPLEX RED)
Sequence (Q9NPH5 whole entry, one chain of several): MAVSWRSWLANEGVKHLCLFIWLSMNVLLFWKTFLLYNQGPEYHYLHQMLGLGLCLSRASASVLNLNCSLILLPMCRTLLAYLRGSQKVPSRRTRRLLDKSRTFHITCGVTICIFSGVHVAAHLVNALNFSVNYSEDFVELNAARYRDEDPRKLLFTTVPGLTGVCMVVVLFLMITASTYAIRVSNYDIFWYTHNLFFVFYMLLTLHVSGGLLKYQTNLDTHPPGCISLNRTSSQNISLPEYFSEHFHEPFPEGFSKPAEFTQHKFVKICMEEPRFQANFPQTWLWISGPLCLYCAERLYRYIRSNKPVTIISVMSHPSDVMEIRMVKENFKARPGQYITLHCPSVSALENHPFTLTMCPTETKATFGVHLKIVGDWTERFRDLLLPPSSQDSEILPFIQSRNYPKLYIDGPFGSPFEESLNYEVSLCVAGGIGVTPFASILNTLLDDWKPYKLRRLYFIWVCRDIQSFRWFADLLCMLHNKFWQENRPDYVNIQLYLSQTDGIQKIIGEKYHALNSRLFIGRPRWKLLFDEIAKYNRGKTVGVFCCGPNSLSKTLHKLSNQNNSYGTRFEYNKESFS
pIC50: −log10 of the molar value.
QUANTITY KIND: pIC50

[[record]]
compound = "c1ccc2oc(Sc3ncnc4c3nnn4Cc3ccc(CN4CCOCC4)cc3)nc2c1"
value = "< 4.00"

[[record]]
compound = "FC1(F)CC2(CCN(Cc3ccc(Cn4nnc5c(Sc6nc7ccccc7o6)ncnc54)cc3)CC2)C1"
value = "< 4.00"

[[record]]
compound = "C#CCN(C)Cc1ccc(Cn2nnc3c(Sc4nc5ccccc5o4)ncnc32)cc1"
value = 4.38

[[record]]
compound = "CCCNC(=O)c1ccc(Cn2nnc3c(Sc4nc5ccccc5o4)ncnc32)cc1"
value = 4.66

[[record]]
compound = "c1ccc2oc(Sc3ncnc4c3nnn4Cc3ccc(CN4CCCCC4)cc3)nc2c1"
value = "< 4.00"

[[record]]
compound = "CCCN(C)Cc1ccc(Cn2nnc3c(Sc4nc5ccccc5o4)ncnc32)cc1"
value = "< 4.00"

[[record]]
compound = "C#CCNC(=O)c1ccc(Cn2nnc3c(Sc4nc5ccccc5o4)ncnc32)cc1"
value = 4.24

[[record]]
compound = "CN(Cc1ccccc1)Cc1ccc(Cn2nnc3c(Sc4nc5ccccc5o4)ncnc32)cc1"
value = "< 4.00"


----------
target: human NOX5 (Homo sapiens); construct: isolated membranes; experiment: Human NOX5 isolated membranes, Amplex Red/horseradish peroxidase coupled assay; conditions: membrane-embedded; 40 μM NADPH; read-out: IC50 on human NOXs, NOX5 (AMPLEX RED)
Sequence (Q96PH1 1-719 isoform Q96PH1-4): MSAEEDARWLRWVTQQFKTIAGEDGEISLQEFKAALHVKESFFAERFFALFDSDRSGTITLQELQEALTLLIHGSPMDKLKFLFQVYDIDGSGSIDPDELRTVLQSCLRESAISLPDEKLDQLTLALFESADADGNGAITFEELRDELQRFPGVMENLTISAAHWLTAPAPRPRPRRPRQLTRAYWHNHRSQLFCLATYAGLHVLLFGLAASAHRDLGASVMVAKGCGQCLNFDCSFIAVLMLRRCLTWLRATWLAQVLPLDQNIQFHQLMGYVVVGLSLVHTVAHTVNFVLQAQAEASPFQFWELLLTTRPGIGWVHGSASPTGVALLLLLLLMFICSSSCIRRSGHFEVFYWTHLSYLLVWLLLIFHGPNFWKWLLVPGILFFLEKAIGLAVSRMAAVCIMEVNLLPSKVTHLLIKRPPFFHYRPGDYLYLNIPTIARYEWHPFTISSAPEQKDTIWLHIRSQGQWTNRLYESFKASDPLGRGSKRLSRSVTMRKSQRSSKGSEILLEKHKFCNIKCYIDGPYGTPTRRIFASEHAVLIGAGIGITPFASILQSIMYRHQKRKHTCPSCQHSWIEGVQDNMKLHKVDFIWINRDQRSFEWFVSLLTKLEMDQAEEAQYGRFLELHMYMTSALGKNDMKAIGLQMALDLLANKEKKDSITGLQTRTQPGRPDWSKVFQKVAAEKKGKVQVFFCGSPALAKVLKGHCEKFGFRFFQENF
QUANTITY KIND: log10(IC50) (log10 of the value in µM)

[[record]]
compound = "C#CCN(C)Cc1ccc(Cn2nnc3c(Sc4nc5ccccc5o4)ncnc32)cc1 [Compound 9a]"
value = 0.72

[[record]]
compound = "CCCNC(=O)c1ccc(Cn2nnc3c(Sc4nc5ccccc5o4)ncnc32)cc1 [Compound 8a]"
value = 0.81

[[record]]
compound = "FC1(F)CC2(CCN(Cc3ccc(Cn4nnc5c(Sc6nc7ccccc7o6)ncnc54)cc3)CC2)C1 [Compound 9f]"
value = 1.67

[[record]]
compound = "CN(Cc1ccccc1)Cc1ccc(Cn2nnc3c(Sc4nc5ccccc5o4)ncnc32)cc1 [Compound 9c]"
value = 1.16

[[record]]
compound = "c1ccc2oc(Sc3ncnc4c3nnn4Cc3ccc(CN4CCOCC4)cc3)nc2c1 [Compound 9e]"
value = 0.31

[[record]]
compound = "c1ccc2oc(Sc3ncnc4c3nnn4Cc3ccc(CN4CCCCC4)cc3)nc2c1 [Compound 9d]"
value = 0.67


----------
Target: human NOX1 (Homo sapiens, UniProt Q9Y5S8)
Construct: isolated membranes; Cytosolic proteins made in E. coli
Sequence (Q9Y5S8 1-564): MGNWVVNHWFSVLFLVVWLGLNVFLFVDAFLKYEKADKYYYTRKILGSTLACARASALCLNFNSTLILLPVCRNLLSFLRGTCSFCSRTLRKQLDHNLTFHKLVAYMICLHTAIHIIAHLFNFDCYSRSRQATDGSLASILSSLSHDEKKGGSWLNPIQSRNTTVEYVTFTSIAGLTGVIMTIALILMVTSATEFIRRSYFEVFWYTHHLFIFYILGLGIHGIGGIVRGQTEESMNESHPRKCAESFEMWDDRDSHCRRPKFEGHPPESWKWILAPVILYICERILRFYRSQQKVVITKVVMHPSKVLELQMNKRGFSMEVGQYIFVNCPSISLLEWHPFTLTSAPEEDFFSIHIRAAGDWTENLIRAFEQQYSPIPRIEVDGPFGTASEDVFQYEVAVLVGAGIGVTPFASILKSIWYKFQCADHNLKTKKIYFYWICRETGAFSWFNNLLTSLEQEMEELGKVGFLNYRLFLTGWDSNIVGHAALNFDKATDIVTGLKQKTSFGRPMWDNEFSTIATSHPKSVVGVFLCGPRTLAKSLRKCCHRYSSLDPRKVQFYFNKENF
Sequence (P13498 1-195 partner): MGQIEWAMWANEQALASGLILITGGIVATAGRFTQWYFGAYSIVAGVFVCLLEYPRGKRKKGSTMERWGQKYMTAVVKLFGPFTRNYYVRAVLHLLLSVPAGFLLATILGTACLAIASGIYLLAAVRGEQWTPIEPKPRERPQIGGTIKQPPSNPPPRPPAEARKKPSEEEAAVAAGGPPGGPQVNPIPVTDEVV
Assay: Human NOX1 isolated membranes, Amplex Red/horseradish peroxidase coupled assay
Conditions: membrane-embedded; 40 μM NADPH; read-out: IC50 on human NOXs, NOX1 (AMPLEX RED)
QUANTITY KIND: IC50

[[record]]
compound = "c1ccc2oc(Sc3ncnc4c3nnn4Cc3ccc(CN4CCCCC4)cc3)nc2c1"
value = "> 100 µM"

[[record]]
compound = "FC1(F)CC2(CCN(Cc3ccc(Cn4nnc5c(Sc6nc7ccccc7o6)ncnc54)cc3)CC2)C1"
value = "> 100 µM"

[[record]]
compound = "C#CCNC(=O)c1ccc(Cn2nnc3c(Sc4nc5ccccc5o4)ncnc32)cc1"
value = "> 100 µM"

[[record]]
compound = "CN(Cc1ccccc1)Cc1ccc(Cn2nnc3c(Sc4nc5ccccc5o4)ncnc32)cc1"
value = "> 100 µM"

[[record]]
compound = "C#CCN(C)Cc1ccc(Cn2nnc3c(Sc4nc5ccccc5o4)ncnc32)cc1"
value = "22 µM"

[[record]]
compound = "CCCNC(=O)c1ccc(Cn2nnc3c(Sc4nc5ccccc5o4)ncnc32)cc1"
value = "32.9 µM"

[[record]]
compound = "c1ccc2oc(Sc3ncnc4c3nnn4Cc3ccc(CN4CCOCC4)cc3)nc2c1"
value = "> 100 µM"

[[record]]
compound = "CCCN(C)Cc1ccc(Cn2nnc3c(Sc4nc5ccccc5o4)ncnc32)cc1"
value = "> 100 µM"

